- ASSAY_COMMENT: Pharmacokinetics of ivacaftor and M1 in Sprague-Dawley rats with or without nisoldipine or nimodipine
- Type: in vivo
- TEST_SETTINGS: male, rat, plasma, po, ivacaftor 10 mg/kg gavage, nisoldipine 1 mg/kg or nimodipine 10 mg/kg 30 min before, n = 4
READOUT: AUC(0-inf) (ng·h/mL)
Express it in ng·h/mL; write the number only.

Reported AUC(0-inf) of CC(C)(C)c1cc(C(C)(C)C)c(NC(=O)c2c[nH]c3ccccc3c2=O)cc1O [Ivacaftor] : 9360

---

- TARGET_OF_ASSAY: ivacaftor metabolism in human liver microsomes (HLM)
- ASSAY_COMMENT: IC50 and inhibition mechanism (Lineweaver-Burk, Ki, αKi) on ivacaftor metabolism in HLM
- Type: in vitro ADME
- TEST_SETTINGS: ivacaftor 6.8 μM, listed as nimodipine
pIC50: −log10 of the molar value.
READOUT: pIC50

The value of pIC50 measured for the compound COCCOC(=O)C1=C(C)NC(C)=C(C(=O)OC(C)C)C1c1cccc([N+](=O)[O-])c1 (stereo not shown) [Nimodipine] turned out to be > 5.00

Each recorded value in this set is attributed to paper PMC11424460.
